methodNotes: Counterscreen qHTS for Identification of Calcium Integrin Binding Protein 1 (CIB1) Competitor
assayConditions: series mostly up to 114 µM
Results filed as inconclusive are left out. Active and inactive are the calls of the source. Calls come from the whole dose curve; as a rule, active = well fitted inhibition curve with a large enough effect; inconclusive = small, poorly fitted or top-dose-only effect; inactive = no such curve, though single readings can be large or run the other way.
Labels: class 1 (active), class 0 (inactive)

compound: COc1ccccc1Nc1cc2ccccc2c(=O)[nH]1
label: class 1

compound: Cc1ccc(C(=O)NC(c2ccco2)c2cc(Cl)c3cccnc3c2O)cc1 (configuration not stated)
label: class 0

compound: C[C@H]1COC2=C1C(=O)C(=O)c1c2ccc2c1CCCC2(C)C
label: class 0

compound: COc1ccc2c(=O)n3nc(Nc4cccc(N5CCN(C)CC5)c4)sc3nc2c1
label: class 0

compound: CCc1oc2ccccc2c1C(=O)c1cc(I)c(O)c(I)c1
label: class 1

compound: COC(=O)c1ccc2c(c1)S(=O)(=O)N=C2Sc1cc(C)ccc1C
label: class 0

compound: COc1ccc(NC(=O)c2[nH]c(C)c(C(C)=O)c2C)cc1[S+](=O)([O-])Nc1ccccc1C#N
label: class 0
